assay: Half life in CD1 mouse brain at 10 mg/kg, iv by LC-MS/MS analysis; type: ADME, organism-based
MEASUREMENT_NAME: half-life (h)
Please respond with the number in h and leave the unit unwritten.

Looking up O=C(NCCCCc1ccccc1)NC1CCC(O)CC1 (configuration not stated) , I see its half-life listed as 1.74

Looking up CC1CC(O)CCC1NC(=O)NCCCCc1ccccc1 (configuration not stated) , I see its half-life listed as 1.62

* * *

assay: Volume of distribution in CD1 mouse at 10 mg/kg, iv by LC-MS/MS analysis; format: ADME, organism-based; conditions: in vivo
Exercise: for every item that follows, state its recorded Vd.
Please respond with the number in L/kg and leave the unit unwritten.

Looking up O=C(NCCCCc1ccccc1)NC1CCC(O)CC1 (configuration not stated) , I see its Vd listed as 2

Looking up CC1CC(O)CCC1NC(=O)NCCCCc1ccccc1 (configuration not stated) , I see its Vd listed as 2

* * *

experiment: Cmax in CD1 mouse brain at 10 mg/kg, iv by LC-MS/MS analysis; type: ADME, organism-based; parameters: dose 10 mg/kg, route intravenous
Exercise: for every item that follows, state its recorded Cmax.
Please respond with the number in ng/g and leave the unit unwritten.

Looking up CC1CC(O)CCC1NC(=O)NCCCCc1ccccc1 (configuration not stated) , I see its Cmax listed as 366

Looking up O=C(NCCCCc1ccccc1)NC1CCC(O)CC1 (configuration not stated) , I see its Cmax listed as 1270

* * *

assay: Kinetic solubility in pH 7.4 aqueous solution incubated for 24 hrs by UV spectroscopy; format: physicochemical; settings: read-out: Kinetic_solubility
Exercise: for every item that follows, state its recorded solubility kinetic at 24 h.
Please respond with the number in µM and leave the unit unwritten.

Looking up CC1CCCCC1NC(=O)NCCSc1nnc(C2CC2)n1-c1ccccc1 (stereo not drawn) , I see its solubility kinetic at 24 h listed as 67

Looking up CC1CCCCC1NC(=O)NCCOc1nnc(C2CC2)n1-c1ccccc1 (stereo not drawn) , I see its solubility kinetic at 24 h listed as 24

* * *

experiment: Half life in human liver microsomes at 1 uM by LC-MS/MS analysis; format: ADME, Microsome; details: microsomes, 1 µM
MEASUREMENT_NAME: t1/2 (h)
Please respond with the number in h and leave the unit unwritten.

Looking up CC1CCC(NC(=O)CCCCCc2ccccc2)CC1 (configuration not stated) , I see its t1/2 listed as 0.12

Looking up `O=C(N[C@H]1CC[C@H](O)CC1)OCCCCc1ccccc1` , I see its t1/2 listed as 2.188

Looking up `O=C(CCCCCc1ccccc1)NC1CCOCC1` , I see its t1/2 listed as 0.893

Looking up CC1CCCCC1NC(=O)NCCCc1nnc(-c2ccccc2)n1C (configuration not stated) , I see its t1/2 listed as 0.717

Looking up NC1CCC(NC(=O)CCCCCc2ccccc2)CC1 (configuration not stated) , I see its t1/2 listed as 0.395

Looking up CC1CCCCC1NC(=O)NCCSc1nnc(C2CC2)n1-c1ccccc1 (configuration not stated) , I see its t1/2 listed as 0.05

Looking up CC1CC(O)CCC1NC(=O)NCCCCc1ccccc1 (configuration not stated) , I see its t1/2 listed as 0.668

* * *

Exercise: for every item that follows, state its recorded t1/2.
experiment: Half life in human liver microsomes at 1 uM by LC-MS/MS analysis; format: ADME, Microsome; conditions: microsomes, 1 µM

Looking up O=C(NCCCc1nnc(C2CC2)n1-c1ccc(F)cc1)NC1CCC(F)CC1 (configuration not stated) , I see its t1/2 listed as 1.03 h

Looking up CC1CCCCC1NC(=O)NCCCCc1ccccc1 (configuration not stated) , I see its t1/2 listed as 0.222 h

Looking up `CCn1c(CCCNC(=O)NC2CCOCC2)nnc1C1CC1` , I see its t1/2 listed as > 2.42 h

Looking up CC1CCCCC1NC(=O)NCCCc1nnc(C2CC2)n1-c1ccccc1 (configuration not stated) , I see its t1/2 listed as 0.1 h

Looking up O=C(NCCCCc1ccccc1)NC1CCC(O)CC1 (configuration not stated) , I see its t1/2 listed as > 2.42 h

Looking up O=C(CCCCCc1ccccn1)NC1CCC(O)CC1 (configuration not stated) , I see its t1/2 listed as > 2.42 h

Looking up `O=C(CCCOCc1ccccc1)N[C@H]1CC[C@H](O)CC1` , I see its t1/2 listed as > 2.42 h

Looking up `O=C(NCCCc1nnc(C2CC2)n1-c1ccccc1)NC1CCOCC1` , I see its t1/2 listed as > 2.42 h

Looking up CC1CCCCC1NC(=O)NCCc1nnc(-c2ccccc2)n1C (configuration not stated) , I see its t1/2 listed as 0.13 h

Looking up CC1CCCCC1NC(=O)NCCCc1nnc(C2CC2)n1-c1ccc(F)cc1 (configuration not stated) , I see its t1/2 listed as 0.083 h

Looking up O=C(CCCCCc1ccncc1)NC1CCC(O)CC1 (configuration not stated) , I see its t1/2 listed as > 2.42 h

Looking up `O=C(COCCCc1ccccc1)N[C@H]1CC[C@H](O)CC1` , I see its t1/2 listed as > 2.42 h

* * *

Exercise: for every item that follows, state its recorded t1/2.
experiment: Half life in mouse liver microsomes at 1 uM by LC-MS/MS analysis; assay type: ADME, Microsome; details: microsomes, 1 µM
Please respond with the number in h and leave the unit unwritten.

Looking up `O=C(CCCCCc1ccccc1)NC1CCOCC1` , I see its t1/2 listed as 0.165

Looking up CC1CCCCC1NC(=O)NCCc1nnc(-c2ccccc2)n1C (stereo unspecified) , I see its t1/2 listed as 0.467

Looking up NC1CCC(NC(=O)CCCCCc2ccccc2)CC1 (stereo unspecified) , I see its t1/2 listed as 1.865

Looking up CC1CCCCC1NC(=O)NCCCCc1ccccc1 (stereo unspecified) , I see its t1/2 listed as 0.0317

* * *

Exercise: for every item that follows, state its recorded remaining at 2 h, 2 µM.
experiment: Stability in mouse plasma at 2 uM after 120 mins by LC-MS/MS analysis relative to control; type: ADME, cell-free; details: read-out: Stability
Please respond with the number in % and leave the unit unwritten.

Looking up CC1CCCCC1NC(=O)NCCSc1nnc(C2CC2)n1-c1ccccc1 (stereo not drawn) , I see its remaining at 2 h, 2 µM listed as 94

Looking up CC1CCCCC1NC(=O)NCCCc1nnc(C2CC2)n1-c1ccccc1 (stereo not drawn) , I see its remaining at 2 h, 2 µM listed as 100

Looking up CC1CCCCC1NC(=O)NCCOc1nnc(C2CC2)n1-c1ccccc1 (stereo not drawn) , I see its remaining at 2 h, 2 µM listed as 84

* * *

test: Half life in mouse liver microsomes at 1 uM by LC-MS/MS analysis; assay type: ADME, Microsome; details: microsomes, 1 µM
// label = 1.0 if t1/2 is not less than 0.3 h, otherwise 0.0

Req: Could you verify whether the entry `O=C(COCCCc1ccccc1)N[C@H]1CC[C@H](O)CC1` shows t1/2 of no less than 0.3 h?
Resp: 1.0

Req: Could you verify whether the entry O=C(NCCCc1nnc(C2CC2)n1-c1ccc(F)cc1)NC1CCC(F)CC1 (configuration not stated) shows t1/2 of no less than 0.3 h?
Resp: 0.0

Req: Could you verify whether the entry `O=C(CCCOCc1ccccc1)N[C@H]1CC[C@H](O)CC1` shows t1/2 of no less than 0.3 h?
Resp: 1.0

Req: Could you verify whether the entry CC1CCCCC1NC(=O)NCCCc1nnc(C2CC2)n1-c1ccc(F)cc1 (configuration not stated) shows t1/2 of no less than 0.3 h?
Resp: 0.0

Req: Could you verify whether the entry O=C(CCCCCc1ccccn1)NC1CCC(O)CC1 (configuration not stated) shows t1/2 of no less than 0.3 h?
Resp: 1.0

Req: Could you verify whether the entry `O=C(N[C@H]1CC[C@H](O)CC1)OCCCCc1ccccc1` shows t1/2 of no less than 0.3 h?
Resp: 1.0

Req: Could you verify whether the entry CC1CCCCC1NC(=O)NCCCc1nnc(C2CC2)n1-c1ccccc1 (configuration not stated) shows t1/2 of no less than 0.3 h?
Resp: 0.0

Req: Could you verify whether the entry O=C(CCCCCc1ccncn1)NC1CCC(O)CC1 (configuration not stated) shows t1/2 of no less than 0.3 h?
Resp: 1.0

Req: Could you verify whether the entry `O=C(CCCCOc1ccccc1)N[C@H]1CC[C@H](O)CC1` shows t1/2 of no less than 0.3 h?
Resp: 1.0

Req: Could you verify whether the entry `O=C(NCCCc1nnc(C2CC2)n1-c1ccccc1)NC1CCOCC1` shows t1/2 of no less than 0.3 h?
Resp: 1.0

Req: Could you verify whether the entry `O=C(NCCCCc1ccccc1)NC1CCNCC1` shows t1/2 of no less than 0.3 h?
Resp: 1.0

Req: Could you verify whether the entry CC1CCC(NC(=O)CCCCCc2ccccc2)CC1 (configuration not stated) shows t1/2 of no less than 0.3 h?
Resp: 0.0
